- Tested on: morningglory
- assay-text: Test B pre/postemergence morningglory
- Assay type: in vivo, Ipomoea hederacea
- condition: Postemergence, Rate 62 g/ha; scale 0 to 10, 0 is no effect, 10 is complete control
Entry flag: 1 (yes) if Plant response rating, Morningglory reaches 3; 0 (no) if it does not.

compound	discrete-label
CC(CBr)Cn1c(=O)on(C(=O)N(c2ccc(F)cc2)C(C)C)c1=O (centres unmarked)	0 (no)
CC(C)N(C(=O)n1oc(=O)n(CC(C)[N+](=O)[O-])c1=O)c1ccc(F)cc1F (centres unmarked)	0 (no)
CC(C)N(C(=O)n1oc(=O)n(C(C)C(=S)N(C)C)c1=O)c1ccc(F)cc1F (centres unmarked)	1 (yes)
C#CC(C)n1c(=O)on(C(=O)N(c2ccccc2)C(C)C)c1=O (centres unmarked)	1 (yes)

---

- System: blackgrass
- assay-text: Test B pre/postemergence blackgrass
- Format: in vivo, Alopecurus myosuroides
- condition: Preemergence, Rate 125 g/ha; scale 0 to 10, 0 is no effect, 10 is complete control

compound	Blackgrass plant response rating
CC(=O)OCCCCn1c(=O)on(C(=O)N(c2ccc(Cl)cc2)C(C)C)c1=O [Compound 536]	0
COCCOCn1c(=O)on(C(=O)N(c2ccc(Cl)cc2)C(C)C)c1=O [Compound 535]	0
CC(C)N(C(=O)n1oc(=O)n(CC2CC2)c1=O)c1ccc(F)cc1F [Compound 509]	7
CC(C)N(C(=O)n1oc(=O)n(CCCNC(=O)CCl)c1=O)c1ccccc1 [Compound 493]	0

---

// Ducksalad plant response rating lookup, one value per entry
- Tested on: duck salad
- assay-text: Test B flood test duck salad
- Assay type: in vivo, Heteranthera limosa
- condition: Rate 250 g/ha; Pre-emergence (flood test species); scale 0 to 10, 0 is no effect, 10 is complete control
reported-property: Ducksalad plant response rating

molecular-string	numeric-result
CC(C)N(C(=O)n1oc(=O)n(COC(=O)C(C)(C)C)c1=O)c1ccc(F)cc1	0
CC(C)N(C(=O)n1oc(=O)n(CCC(=O)N(C)C)c1=O)c1ccc(F)cc1	0
CC(C)N(C(=O)n1oc(=O)n(CC2CC2)c1=O)c1ccc(F)cc1F	0

---

- Test system: bamyardgrass
- assay-text: Test B flood test barnyardgrass
- Format: in vivo, Echinochloa crus-galli
- condition: Rate 250 g/ha; Pre-emergence; flood-test species; scale 0 to 10, 0 is no effect, 10 is complete control
reported-property: Barnyardgrass plant response rating

molecule	result
CCN(C(=O)n1oc(=O)n(C(C)C)c1=O)C1CCCCC1	0
C=CCCCn1c(=O)on(C(=O)N(c2ccc(F)cc2)C(C)C)c1=O	4
CC(C)N(C(=O)n1oc(=O)n(Cc2nnsc2Cl)c1=O)c1ccc(F)cc1F	0
CC(C)N(C(=O)n1oc(=O)n(CC#N)c1=O)c1ccc(F)cc1	0
CC(C)N(C(=O)n1oc(=O)n(C)c1=O)c1ccc(F)cc1F	0
CC1CC1n1c(=O)on(C(=O)N(c2ccc(F)cc2F)C(C)C)c1=O (stereo not shown)	0
CC(C)N(C(=O)n1oc(=O)n(Cc2ccccc2-c2ccccc2)c1=O)c1ccc(F)cc1	0
CCN(Cc1ccccc1)C(=O)n1oc(=O)n(C(C)C)c1=O	0
COc1cc(C)cc(C)c1-n1c(=O)on(C(=O)N(c2ccc(F)cc2)C(C)C)c1=O	0
CC(C)N(C(=O)n1oc(=O)n(CC2CCOC2)c1=O)c1ccc(F)cc1 (stereo not shown)	0

The values you see were collected from patent US6737383B1.
